Reference for the values: the supplement of paper PMC8728848

Target: Neu5Ac(a2-3)Gal(b1-4)GlcNAc(b1-2)Man(a1-3)[Neu5Ac(a2-3)Gal(b1-4)GlcNAc(b1-2)Man(a1-6)]Man(b1-4)GlcNAc(b1-4)[Fuc(a1-6)]GlcNAc
Test: glycan array binding signal (z-score within array); higher = stronger binding
Details: glycan notation: IUPAC condensed, linker removed
This excerpt belongs to a sample that is enriched for the strongest signals.
measurement-name: glycan array binding signal (z-score)
// return just the number, without any unit appended

Some binders with recorded glycan array binding signal (z-score):
binder	measurement-name	measurement
MIC1 (Toxoplasma gondii), O00834 (protein) VGPEAYGEASHSHSPASGRYIQQMLDQRCQEIAAELCQSGLRKMCVPSSRIVARNAVGITHQNTLQWRCFDTASLLESNQENNGVNCVDDCGHTIPCPGGVHRQNSNHATRHEILSKLVEEGVQRFCSPYQASANKYCNDKFPGTIARRSKGFGNNVEVAWRCYEKASLLYSVYAECASNCGTTWYCPGGRRGTSTELDKRHYTEEEGIRQAIGSVDSPCSEVEVCLPKDENPPLCLDESGQISRT	glycan array binding signal (z-score)	2.46
HA-00510 (Pseudomonas aeruginosa), Q02V39_PSEAB (protein) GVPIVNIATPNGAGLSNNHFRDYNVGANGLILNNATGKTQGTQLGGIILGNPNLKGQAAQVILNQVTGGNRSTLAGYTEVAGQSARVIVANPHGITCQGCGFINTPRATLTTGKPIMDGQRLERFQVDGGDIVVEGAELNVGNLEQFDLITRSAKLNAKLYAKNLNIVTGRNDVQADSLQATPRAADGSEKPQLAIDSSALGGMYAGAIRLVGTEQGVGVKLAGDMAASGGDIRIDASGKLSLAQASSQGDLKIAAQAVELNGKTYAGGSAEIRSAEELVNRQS	glycan array binding signal (z-score)	0.601

Proceed to the following item.
glycan array binding signal (z-score) measured on SJCP1531 (Schistosoma japonicum) (protein) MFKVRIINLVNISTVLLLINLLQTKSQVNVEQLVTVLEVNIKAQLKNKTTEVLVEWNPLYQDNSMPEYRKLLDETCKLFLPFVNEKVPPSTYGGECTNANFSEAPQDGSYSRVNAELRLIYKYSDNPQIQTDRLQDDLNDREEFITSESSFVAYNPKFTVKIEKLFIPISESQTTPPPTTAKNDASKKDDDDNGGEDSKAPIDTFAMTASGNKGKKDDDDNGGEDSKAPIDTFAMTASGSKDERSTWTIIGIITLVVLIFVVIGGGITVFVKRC = -1.15
